- Target system: ROCK1 (Homo sapiens)
- Construct: purchased Upstate/Chemicon 14-601
- Assay overview: Rho kinase inhibition assay (IMAP fluorescence polarization), ROCK1
- Assay type: biochemical
- Recorded conditions: Avg, 10 μM ATP
Here, each record is paired with measured Ki data.

Smiles string	Ki (nM)
c1cc2c(cc1CN1CCC[C@@H](Nc3ccc4[nH]ncc4c3)C1)CCO2	92.1
C#Cc1cccc(CN2CCC[C@H](Nc3ccc4[nH]ncc4c3)C2)c1	62.8
CC(=O)NCc1cccc(CN2CC[C@@H](Nc3cccc4cnccc34)C2)c1	206
OCCn1ccc2cc(CN3CCC[C@H](Nc4ccc5[nH]ncc5c4)C3)ccc21	239

* * *

- Target system: ROCK1 (Homo sapiens)
- Construct: purchased Upstate/Chemicon 14-601
- Assay overview: Rho kinase inhibition assay (IMAP fluorescence polarization), ROCK1
- Assay type: biochemical
- Recorded conditions: average Ki
pKi: −log10 of the molar value.
Readout type: pKi

Smiles string	Target system	Readout type	Result value
CSc1ccc(CN2CCC[C@H](Nc3ccc4[nH]ncc4c3)C2)cc1	ROCK1 (Homo sapiens)	pKi	7.31
NC(=O)Cn1ccc2cc(CN3CC[C@@H](Nc4cccc5cnccc45)C3)ccc21	ROCK1 (Homo sapiens)	pKi	8.41
Cc1cccc(CN2CCC[C@H](Nc3ccc4[nH]ncc4c3)C2)c1C	ROCK1 (Homo sapiens)	pKi	6.87
NC(=O)Cn1ccc2cc(CN3CCC[C@@H](Nc4ccc5[nH]ncc5c4)C3)ccc21	ROCK1 (Homo sapiens)	pKi	7.82
Cc1cccc(CN2CCC[C@H](Nc3ccc4[nH]ncc4c3)C2)c1	ROCK1 (Homo sapiens)	pKi	6.96
c1cc2cc(CN3CCC[C@H](Nc4ccc5[nH]ncc5c4)C3)ccc2[nH]1	ROCK1 (Homo sapiens)	pKi	7.33
Oc1cccc(CN2CC[C@@H](Nc3cccc4cnccc34)C2)c1	ROCK1 (Homo sapiens)	pKi	7.98
Fc1ccc(CN2CCC[C@H](Nc3ccc4[nH]ncc4c3)C2)cc1	ROCK1 (Homo sapiens)	pKi	7.37

* * *

activity at 10 µM overview
- Target system: GCK (Homo sapiens, UniProt Q12851)
- Construct: purchased Upstate, Millipore Bioscience Division (KinaseProfiler service)
- Sequence (Q12851 whole entry): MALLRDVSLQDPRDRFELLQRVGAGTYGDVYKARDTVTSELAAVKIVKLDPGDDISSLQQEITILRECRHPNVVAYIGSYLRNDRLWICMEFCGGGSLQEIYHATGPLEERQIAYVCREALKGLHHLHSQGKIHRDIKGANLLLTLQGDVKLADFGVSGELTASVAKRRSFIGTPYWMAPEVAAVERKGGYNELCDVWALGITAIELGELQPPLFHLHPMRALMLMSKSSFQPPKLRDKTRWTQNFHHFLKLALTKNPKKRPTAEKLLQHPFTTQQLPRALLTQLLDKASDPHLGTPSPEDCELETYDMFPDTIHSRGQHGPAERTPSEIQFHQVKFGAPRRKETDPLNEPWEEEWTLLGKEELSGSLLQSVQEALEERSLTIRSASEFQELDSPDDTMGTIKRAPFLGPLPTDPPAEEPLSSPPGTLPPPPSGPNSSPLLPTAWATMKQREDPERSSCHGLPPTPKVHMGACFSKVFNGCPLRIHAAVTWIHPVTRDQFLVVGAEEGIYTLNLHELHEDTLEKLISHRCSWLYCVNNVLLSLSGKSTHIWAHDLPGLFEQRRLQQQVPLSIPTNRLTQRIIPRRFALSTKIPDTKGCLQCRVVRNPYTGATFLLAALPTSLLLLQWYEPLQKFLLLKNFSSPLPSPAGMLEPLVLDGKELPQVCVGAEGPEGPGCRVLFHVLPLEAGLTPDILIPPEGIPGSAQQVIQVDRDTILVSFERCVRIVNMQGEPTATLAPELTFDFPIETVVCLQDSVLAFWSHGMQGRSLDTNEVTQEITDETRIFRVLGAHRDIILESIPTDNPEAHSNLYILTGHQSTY
- Assay overview: Kinase panel screen (KinaseProfiler), GCK
- Type: biochemical
- Recorded conditions: 10 μM test compound, 10 μM ATP; read-out: GCK Percent inhibition, 10 μM
Readout type: activity at 10 µM (%)

Compound	Readout type	Result value
NC(=O)Cn1ccc2cc(CN3CCC[C@@H](Nc4ccc5[nH]ncc5c4)C3)ccc21 [Compound 1.162]	activity at 10 µM	75
Cc1ccc(CN2CCC[C@@H](Nc3ccc4[nH]ncc4c3)C2)cc1OCCO [Compound 1.161]	activity at 10 µM	91
OCCn1ccc2cc(CN3CC[C@@H](Nc4cccc5cnccc45)C3)ccc21 [Compound 2.066]	activity at 10 µM	7
NC(=O)Cn1ccc2cc(CN3CC[C@@H](Nc4cccc5cnccc45)C3)ccc21 [Compound 2.059]	activity at 10 µM	34

* * *

- Assay overview: Compound plasma concentrations in unsensitized mice at 15 min post administration
- Format: in vivo
- Recorded conditions: mouse, plasma; unsensitized mice, 15 min post administration, mean n = 3; read-out: Plasma Mean Concentration
Readout type: concentration at 15 min (nM)

Molecule	U	Result value
CS(=O)(=O)Nc1cccc(CN2CCCC(Nc3ccc4[nH]ncc4c3)C2)c1 (stereo in doubt)	nM	334

* * *

- Target system: ROCK1 (Homo sapiens)
- Construct: purchased Upstate/Chemicon 14-601
- Assay overview: Rho kinase inhibition assay (IMAP fluorescence polarization), ROCK1
- Format: biochemical
- Recorded conditions: Avg, 10 μM ATP
pKi: −log10 of the molar value.
Reported pKi values are given for each entry in this list.
Readout type: pKi

Molecule	Result value
CC(C)(C)OC(=O)COc1cccc(CN2CCC[C@H](Nc3ccc4[nH]ncc4c3)C2)c1	6.53
CS(=O)(=O)c1ccc(CN2CC[C@@H](Nc3ccc4[nH]ncc4c3)C2)cc1	6.17
CCS(=O)(=O)Nc1cc(CN2CC[C@@H](Nc3cccc4cnccc34)C2)ccc1C	7.77
OCC1COc2ccc(CN3CCC[C@@H](Nc4ccc5[nH]ncc5c4)C3)cc2O1 (some centres unmarked)	6.31
N#Cc1cccc(CN2CCC(Nc3cccc4cnccc34)C2)c1 (centres unmarked)	6.41

* * *

- Target system: p70S6K human enzyme (Homo sapiens, UniProt P23443, T412E)
- Construct: purchased Upstate Chemicon 14-486
- Sequence (P23443 1-421 T412E limits assumed): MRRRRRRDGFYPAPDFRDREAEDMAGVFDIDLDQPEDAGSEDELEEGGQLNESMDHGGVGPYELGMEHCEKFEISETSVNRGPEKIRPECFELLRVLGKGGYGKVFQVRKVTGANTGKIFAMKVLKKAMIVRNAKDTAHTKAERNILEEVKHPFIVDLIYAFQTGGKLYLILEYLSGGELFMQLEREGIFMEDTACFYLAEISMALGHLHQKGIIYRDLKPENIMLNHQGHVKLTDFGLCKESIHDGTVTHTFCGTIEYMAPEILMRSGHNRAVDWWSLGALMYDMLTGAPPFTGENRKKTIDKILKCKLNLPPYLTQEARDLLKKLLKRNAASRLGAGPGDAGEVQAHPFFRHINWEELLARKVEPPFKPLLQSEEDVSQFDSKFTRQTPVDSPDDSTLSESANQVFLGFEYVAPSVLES
- Assay overview: p70S6K inhibition assay (IMAP FP)
- Format: biochemical
- Recorded conditions: 30 μM ATP; Ki=IC50/(1+([ATP Challenge]/EC50 ATP)); read-out: p70S6K Ki, Avg
pKi: −log10 of the molar value.
Examples of compounds with documented pKi follow.

Smiles string	pKi
C=Cc1ccc(CN2CCC[C@H](Nc3ccc4[nH]ncc4c3)C2)cc1	5.50
c1ccc(CN2CC[C@@H](Nc3cccc4cnccc34)C2)cc1	6.12
CSc1ccc(CN2CC[C@@H](Nc3cccc4cnccc34)C2)cc1	6.27
Cc1ccc(CN2CCC[C@H](Nc3ccc4[nH]ncc4c3)C2)cc1OCCO	6.28
OCCn1ccc2ccc(CN3CCC[C@H](Nc4ccc5[nH]ncc5c4)C3)cc21	5.60
CCc1ccc(CN2CCC[C@@H](Nc3ccc4[nH]ncc4c3)C2)cc1	5.91
CC(C)(C)OC(=O)NCc1cccc(CN2CCC[C@H](Nc3ccc4[nH]ncc4c3)C2)c1	5.06
Cc1cccc(CN2CCC[C@H](Nc3ccc4[nH]ncc4c3)C2)c1C	5.49
OCCN1CCc2ccc(CN3CCC[C@H](Nc4ccc5[nH]ncc5c4)C3)cc21	5.46
c1cc2cc(CN3CCC[C@@H](Nc4ccc5[nH]ncc5c4)C3)ccc2o1	6.30
Oc1cccc(CN2CCC[C@H](Nc3ccc4[nH]ncc4c3)C2)c1	5.73
Fc1ccc(CN2CCC[C@H](Nc3ccc4[nH]ncc4c3)C2)cc1F	5.95
NC(=O)Cn1ccc2ccc(CN3CCC[C@H](Nc4ccc5[nH]ncc5c4)C3)cc21	5.47
O=C(COc1cccc(CN2CCC[C@@H](Nc3ccc4[nH]ncc4c3)C2)c1)N1CCOCC1	5.68
Cc1ccc(S(=O)(=O)Nc2cc(CN3CCC[C@H](Nc4ccc5[nH]ncc5c4)C3)ccc2C)cc1	5.00
CS(=O)(=O)Nc1cccc(CN2CC[C@@H](Nc3cccc4cnccc34)C2)c1	5.85
CC(C)c1ccc(CN2CCC[C@H](Nc3ccc4[nH]ncc4c3)C2)cc1	5.99
Cc1ccc(CN2CCC[C@H](Nc3ccc4[nH]ncc4c3)C2)cc1	5.78
Cc1ccc(CN2CCC[C@@H](Nc3ccc4[nH]ncc4c3)C2)cc1	6.27
c1cc(C2CC2)ccc1CN1CCC[C@H](Nc2ccc3[nH]ncc3c2)C1	5.94
CSc1cccc(CN2CCC[C@@H](Nc3ccc4[nH]ncc4c3)C2)c1	5.69
c1cc2cc(CN3CCC[C@@H](Nc4ccc5[nH]ncc5c4)C3)ccc2[nH]1	6.27
NC(=O)Cn1ccc2cc(CN3CCC[C@H](Nc4ccc5[nH]ncc5c4)C3)ccc21	5.79
OCCn1ccc2ccc(CN3CCC[C@@H](Nc4ccc5[nH]ncc5c4)C3)cc21	6.29
C#Cc1ccc(CN2CCC[C@@H](Nc3ccc4[nH]ncc4c3)C2)cc1	6.38

* * *

- Target system: ROCK1 (Homo sapiens, UniProt Q13464)
- Construct: purchased Upstate/Chemicon 14-601
- Sequence (Q13464 17-535 limits assumed): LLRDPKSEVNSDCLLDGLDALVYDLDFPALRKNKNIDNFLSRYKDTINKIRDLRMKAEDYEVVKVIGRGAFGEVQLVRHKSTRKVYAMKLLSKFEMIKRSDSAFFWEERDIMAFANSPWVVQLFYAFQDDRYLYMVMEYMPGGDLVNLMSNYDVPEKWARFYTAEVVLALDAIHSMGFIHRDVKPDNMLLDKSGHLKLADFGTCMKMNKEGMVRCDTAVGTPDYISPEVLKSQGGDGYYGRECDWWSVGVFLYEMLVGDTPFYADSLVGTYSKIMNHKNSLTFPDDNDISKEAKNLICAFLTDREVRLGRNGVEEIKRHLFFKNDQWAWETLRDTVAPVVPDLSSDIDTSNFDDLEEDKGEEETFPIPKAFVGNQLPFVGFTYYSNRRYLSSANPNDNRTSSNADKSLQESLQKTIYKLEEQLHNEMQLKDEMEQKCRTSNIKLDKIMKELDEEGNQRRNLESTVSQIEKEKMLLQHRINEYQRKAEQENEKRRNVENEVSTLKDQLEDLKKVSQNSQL
- Assay overview: Rho kinase inhibition assay (IMAP fluorescence polarization), ROCK1;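 further: kinase reaction run 60 min at room temperature, then phosphorylated substrate captured on IMAP beads for 30 min, with fluorescence polarization read in mP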
- Type: biochemical
- Recorded conditions: Avg, 10 μM ATP
# reported Ki; entries follow

Smiles string	Target system	Ki
NC(=O)Cn1ccc2ccc(CN3CC[C@@H](Nc4cccc5cnccc45)C3)cc21	ROCK1 (Homo sapiens, UniProt Q13464)	15.3 nM
C=Cc1ccc(CN2CCC[C@@H](Nc3ccc4[nH]ncc4c3)C2)cc1	ROCK1 (Homo sapiens, UniProt Q13464)	54.2 nM
c1cc2cc(CN3CCC[C@H](Nc4ccc5[nH]ncc5c4)C3)ccc2[nH]1	ROCK1 (Homo sapiens, UniProt Q13464)	46.8 nM
O=c1[nH]ccc2c(N[C@@H]3CCN(Cc4cccc(OCCO)c4)C3)cccc12	ROCK1 (Homo sapiens, UniProt Q13464)	1130 nM
c1cc(N[C@@H]2CCN(Cc3ccc4occc4c3)C2)c2ccncc2c1	ROCK1 (Homo sapiens, UniProt Q13464)	16 nM
FC(F)(F)c1ccc(CN2CCC[C@H](Nc3ccc4[nH]ncc4c3)C2)cc1	ROCK1 (Homo sapiens, UniProt Q13464)	119 nM

* * *

- Target system: p70S6K human enzyme (Homo sapiens, UniProt P23443, T412E)
- Construct: purchased Upstate Chemicon 14-486
- Assay overview: p70S6K inhibition assay (IMAP FP);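 further: kinase reaction run at room temperature, phosphorylated substrate captured on IMAP beads and read as fluorescence polarization in mP, IC50 then converted to Ki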
- Type: biochemical
- Recorded conditions: 30 μM ATP; Ki=IC50/(1+([ATP Challenge]/EC50 ATP)); read-out: p70S6K Ki, Avg
pKi: −log10 of the molar value.
Use 6 as the dividing line for pKi, with the line itself on the Y side and lower values as N.

Smiles string	Target system	Answer label
c1cc(N[C@@H]2CCN(Cc3ccc4occc4c3)C2)c2ccncc2c1	p70S6K human enzyme (Homo sapiens, UniProt P23443, T412E)	Y
CCS(=O)(=O)Nc1cccc(CN2CCC[C@H](Nc3ccc4[nH]ncc4c3)C2)c1	p70S6K human enzyme (Homo sapiens, UniProt P23443, T412E)	N
Brc1cccc(CN2CCC[C@H](Nc3ccc4[nH]ncc4c3)C2)c1	p70S6K human enzyme (Homo sapiens, UniProt P23443, T412E)	N
Cc1ccc(CN2CC[C@@H](Nc3cccc4cnccc34)C2)cc1	p70S6K human enzyme (Homo sapiens, UniProt P23443, T412E)	Y
Clc1cccc(CN2CCC[C@H](Nc3ccc4[nH]ncc4c3)C2)c1	p70S6K human enzyme (Homo sapiens, UniProt P23443, T412E)	N
